experiment: Fraction unbound in hepatocytes, Rapid Equilibrium Dialysis (RED) device; type: in vitro ADME; details: human, heat inactivated hepatocytes; RED device; read-out: analytical recovery
Record form. Attribute: recovery. Fill in for each entry.
Answers are plain numbers, in %.

Could I get recovery for every one of these entries?
1. CC1=NN(c2ccc(C)c(C)c2)C(=O)/C1=N\Nc1cccc(-c2cccc(C(=O)O)c2)c1O
2. O=C(O)C[C@H](O)C[C@H](O)/C=C/c1c(C2CC2)nc2ccccc2c1-c1ccc(F)cc1

Response:
[10, 55]

====

experiment: Uptake of pitavastatin and eltrombopag in cryopreserved human hepatocytes (oil spin method), comeasurement, micro‐rate constant mechanistic model; assay type: in vitro ADME; conditions: human; model 1; conditional mode (minimum‐maximum) for 1 × 10^6 cells
readout-kind: k el
Note to self: number, then unit, no commentary.

Request: Query: k el; subject: O=C(O)C[C@H](O)C[C@H](O)/C=C/c1c(C2CC2)nc2ccccc2c1-c1ccc(F)cc1 [pitavastatin, pitavastatin calcium]
Response: 0.00367 s⁻¹

====

test: Fraction unbound in hepatocytes, Rapid Equilibrium Dialysis (RED) device; format: in vitro ADME; conditions: human, heat inactivated hepatocytes, pitavastatin; estimated from RED f u.inc, Eq. 16; read-out: f u.L.X, fraction unbound in the liver
readout-kind: fraction unbound
Give bare numbers.

Request: Query: fraction unbound; subject: "O=C(O)C[C@H](O)C[C@H](O)/C=C/c1c(C2CC2)nc2ccccc2c1-c1ccc(F)cc1"
Response: 0.026

====

assay: Semimechanistic PBPK model simulation in simulated healthy volunteers; parameters: species or system human; conditions: human, plasma and urine; PBPK model value, Eq. 14
readout-kind: clearance (mL/min)
Numbers only, in mL/min.

Request: Query: clearance; subject: O=C(O)C[C@H](O)C[C@H](O)/C=C/c1c(C2CC2)nc2ccccc2c1-c1ccc(F)cc1 [pitavastatin, pitavastatin calcium]
Response: 12

====

assay: Plasma protein binding and blood:plasma ratio (literature); type: in vitro ADME; conditions: blood; fu.pl.P/Bl:Pl, Eq. 15, from literature values 3, 24
readout-kind: fraction unbound
One number for each entry.

Request: Query: fraction unbound; subject: "O=C(O)C[C@H](O)C[C@H](O)/C=C/c1c(C2CC2)nc2ccccc2c1-c1ccc(F)cc1"
Response: 0.009

====

assay: Fraction unbound in hepatocytes, Rapid Equilibrium Dialysis (RED) device; format: in vitro ADME; conditions: human, heat inactivated hepatocytes, RED device, overnight; pitavastatin 0.3, 10 and 100 nmol/ml, eltrombopag 30 nmol/ml; read-out: f u.inc, fraction unbound in the incubation
readout-kind: fraction unbound
One number for each entry.

CC1=NN(c2ccc(C)c(C)c2)C(=O)/C1=N\Nc1cccc(-c2cccc(C(=O)O)c2)c1O = 0.04

Request: Query: fraction unbound; subject: "O=C(O)C[C@H](O)C[C@H](O)/C=C/c1c(C2CC2)nc2ccccc2c1-c1ccc(F)cc1"
Response: 0.9

Values compiled from paper PMC7179958.
